Values from ChEMBL document CHEMBL5331128

# system_under_test: P2Y purinoceptor 14 (Homo sapiens, UniProt Q15391)
# Sequence (Q15391 whole entry): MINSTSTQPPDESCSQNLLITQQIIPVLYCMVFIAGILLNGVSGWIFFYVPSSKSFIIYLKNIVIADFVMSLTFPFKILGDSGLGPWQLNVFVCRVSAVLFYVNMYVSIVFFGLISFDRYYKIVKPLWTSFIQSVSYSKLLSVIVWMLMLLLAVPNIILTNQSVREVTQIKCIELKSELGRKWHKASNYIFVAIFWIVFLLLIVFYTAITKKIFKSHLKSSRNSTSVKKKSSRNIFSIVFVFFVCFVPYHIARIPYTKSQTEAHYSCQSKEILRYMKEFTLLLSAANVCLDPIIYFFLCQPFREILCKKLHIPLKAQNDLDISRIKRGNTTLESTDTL
Output: class label from Ki. Mapping: bottom end (below 0.01 µM), midrange (0.01 µM to below 0.04 µM), top end (0.04 µM or more)

Would you please look over these solved cases?
# compound, classification
measured = [
    ("O=C(O)c1cc(-c2ccc(C3CCCNCCC3)cc2)c2ccc(-c3ccc(C(F)(F)F)cc3)cc2c1", "midrange"),
    ("O=C(O)c1cc(-c2ccc(C3CCCNCC3)cc2)c2ccc(-c3ccc(C(F)(F)F)cc3)cc2c1 (racemic)", "bottom end"),
    ("O=C(O)c1cc(-c2ccc([C@]3(O)[C@@H]4CNC[C@H]3C4)cc2)c2ccc(-c3ccc(C(F)(F)F)cc3)cc2c1", "bottom end"),
]

Place this compound in its band: O=C(O)c1cc(-c2ccc(C3CC4(CNC4)C3)cc2)c2ccc(-c3ccc(C(F)(F)F)cc3)cc2c1
midrange

Then what about the compound O=C(O)c1cc(-c2ccc(C3(O)C[C@H]4CNC[C@@H]4C3)cc2)c2ccc(-c3ccc(C(F)(F)F)cc3)cc2c1 (racemic) ?
bottom end
